Readings of AC50 for the listed molecules
# target: Progesterone receptor (Homo sapiens, UniProt P06401); note: assay procedure not described here
# Sequence (P06401 whole entry): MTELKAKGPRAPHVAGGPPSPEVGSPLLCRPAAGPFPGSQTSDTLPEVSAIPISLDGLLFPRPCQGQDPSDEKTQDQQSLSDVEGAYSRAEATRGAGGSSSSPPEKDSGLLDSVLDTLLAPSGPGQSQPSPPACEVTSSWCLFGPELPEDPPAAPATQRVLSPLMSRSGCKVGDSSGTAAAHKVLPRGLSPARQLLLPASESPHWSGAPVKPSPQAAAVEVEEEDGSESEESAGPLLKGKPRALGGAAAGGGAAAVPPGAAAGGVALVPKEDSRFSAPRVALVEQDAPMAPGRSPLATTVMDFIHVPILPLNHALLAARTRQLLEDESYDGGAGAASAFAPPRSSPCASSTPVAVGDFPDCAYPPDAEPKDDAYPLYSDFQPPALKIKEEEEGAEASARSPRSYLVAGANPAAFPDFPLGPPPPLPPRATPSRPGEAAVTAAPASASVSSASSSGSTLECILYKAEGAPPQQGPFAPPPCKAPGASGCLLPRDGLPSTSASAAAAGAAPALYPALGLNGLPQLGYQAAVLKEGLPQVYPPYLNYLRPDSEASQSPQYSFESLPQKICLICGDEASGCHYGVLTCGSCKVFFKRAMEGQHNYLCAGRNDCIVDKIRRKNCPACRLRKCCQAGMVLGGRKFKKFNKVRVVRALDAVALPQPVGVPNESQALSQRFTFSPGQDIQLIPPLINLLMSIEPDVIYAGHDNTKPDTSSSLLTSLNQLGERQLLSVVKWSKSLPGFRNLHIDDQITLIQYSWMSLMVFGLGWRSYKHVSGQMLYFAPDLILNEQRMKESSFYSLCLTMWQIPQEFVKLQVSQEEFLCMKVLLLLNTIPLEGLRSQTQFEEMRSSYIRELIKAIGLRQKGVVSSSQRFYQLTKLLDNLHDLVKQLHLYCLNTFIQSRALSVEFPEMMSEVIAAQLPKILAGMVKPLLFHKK
# Format: functional

Output AC50 of C[C@H]1C[C@@H]2[C@H]([C@@H](O)C[C@@]3(C)[C@H]2CC[C@]3(O)C(=O)COC(=O)CCC(=O)O)[C@@]2(C)C=CC(=O)C=C12 [METHYLPREDNISOLONE HEMISUCCINATE]
> 30 µM

Output AC50 of CCC1(C2=CCCCCC2)C(=O)NC(=O)NC1=O
> 10 µM

Output AC50 of C[N+](C)(C)CC(=O)O
> 30 µM

Output AC50 of O=P(O)(O)C(O)(Cc1cccnc1)P(=O)(O)O
> 30 µM

Output AC50 of CC(C)(Oc1ccc(C2CC2(Cl)Cl)cc1)C(=O)O (centres undefined) [CIPROFIBRATE]
> 30 µM

Output AC50 of CCCCCN(C)CCC(O)(P(=O)(O)O)P(=O)(O)O
> 30 µM

Output AC50 of NS(=O)(=O)c1cc(Cl)c(Cl)c(S(N)(=O)=O)c1 [DICHLORPHENAMIDE]
> 10 µM

Output AC50 of CS(=O)(=O)c1ccc([C@@H](O)[C@@H](CO)NC(=O)C(Cl)Cl)cc1
> 30 µM

Next molecule, please.
Output AC50 of C=C1CC[C@@]2(O)[C@H]3Cc4ccc(O)c5c4[C@@]2(CCN3CC2CC2)[C@H]1O5
> 30 µM
